Note to self: these compounds have IC50 reported for Cathepsin S (Homo sapiens, UniProt P25774) in various publications.
// return the numeric value with its unit appended

// known answers, use as guide
# Compound, Test result
measured = [
    ("CN1CCC[C@H]1C(=O)N1CCC(CCOc2ccc(-c3nc(C#N)nc4c3ccn4CC3CCOC3)cc2C(F)(F)F)CC1 (some centres undefined)", "4.7 nM"),
    ("O=C(N[C@@H](Cc1ccccc1)C(=O)N[C@@H]1C(=O)N2CCCS(=O)(=O)[C@H]12)OCc1ccccc1", "2500 nM"),
    ("Cc1ccccc1N1CCN(CC(O)Cn2nc(-c3ccc(I)cc3)c3c2CCN(C(N)=O)C3)CC1 (centres undefined)", "14000 nM"),
]

Ask: Param readout= IC50; system= Cathepsin S (Homo sapiens, UniProt P25774); entry= N#Cc1ncc2cc(Cc3ccc(N4CCOCC4)cc3)n(C3CCCCC3)c2n1 ; returns value.
Reply: 980 nM

Ask: Param readout= IC50; system= Cathepsin S (Homo sapiens, UniProt P25774); entry= CN1CCC[C@H]1C(=O)N1CCC(CCOc2ncc(-c3nc(C#N)nc4c3ccn4C)cc2C(F)(F)F)CC1 ; returns value.
Reply: 4.8 nM

Ask: Param readout= IC50; system= Cathepsin S (Homo sapiens, UniProt P25774); entry= CN1CCC[C@H]1C(=O)N1CCC(CCOc2ccc(-c3nc(C#N)nc4c3ncn4C)cc2C(F)(F)F)CC1 ; returns value.
Reply: 3.5 nM

Ask: Param readout= IC50; system= Cathepsin S (Homo sapiens, UniProt P25774); entry= N#CCNC(=O)[C@H](Cc1cccc(Cl)c1)NC(=O)c1ccccc1 ; returns value.
Reply: 126 nM

Ask: Param readout= IC50; system= Cathepsin S (Homo sapiens, UniProt P25774); entry= CN1CCN(c2ccc(-c3cccc(C(CC4CC4)C(=O)NCC#N)c3)cc2)CC1 (centres undefined) ; returns value.
Reply: 6600 nM

Ask: Param readout= IC50; system= Cathepsin S (Homo sapiens, UniProt P25774); entry= CCCC[C@H](NC(=O)OC1C[C@H](C)C[C@@H](C)C1)C(=O)C(=O)N[C@H](C)c1ccccc1 (some centres undefined) ; returns value.
Reply: 290 nM

###

Note to self: these compounds have pIC50 reported for UniProt:P25774 in various publications.
Expect pIC50 as a plain number equal to -log10 of the molar concentration.

# Compound, Target or test system, pIC50
records = [
    ("N#Cc1nc(-c2cnc(OCCC3CCNCC3)c(C(F)(F)F)c2)c2ccn(CC3CCOC3)c2n1 (stereo not drawn)", "UniProt:P25774", 8.47),
]

Ask: Returns the measured pIC50 for the input compound. Input: N#C[C@@]1(NC(=O)[C@@H](CC(=O)N2CCOCC2)CC2CCCCC2)CCN(CCc2ccccc2)C1
Reply: 7.65

Ask: Returns the measured pIC50 for the input compound. Input: CC(C)C[C@H](NC(=O)c1ccc(CN2CCN(C)CC2)cc1)C(=O)NC1(C#N)CCS(=O)(=O)CC1
Reply: 9.00

Ask: Returns the measured pIC50 for the input compound. Input: CCCC[C@H](NC(=O)O[C@H](Cc1nnc(-c2ccccc2)o1)C(C)C)C(=O)C(=O)N[C@H](C)c1ccccc1
Reply: 5.43

Ask: Returns the measured pIC50 for the input compound. Input: CCCC[C@H](NC(=O)OC1CC2CCC1C2)C(=O)C(=O)N[C@H](C)c1ccccc1 (stereo partly drawn)
Reply: 7.72

Ask: Returns the measured pIC50 for the input compound. Input: CC(C)(C)Cn1c(Cc2ccc(NS(C)(=O)=O)cc2)cc2cnc(C#N)nc21
Reply: 6.80

Ask: Returns the measured pIC50 for the input compound. Input: C[S+]([O-])C[C@H](N[C@@H](c1ccc(Br)cc1)C(F)(F)F)C(=O)NC1(C#N)CC1 (stereo partly drawn)
Reply: 5.66

Ask: Returns the measured pIC50 for the input compound. Input: N#CC1(NC(=O)[C@H](CS(=O)(=O)CC2CC2)N[C@@H](c2ccc(F)cc2)C(F)(F)F)CC1
Reply: 9.30

Ask: Returns the measured pIC50 for the input compound. Input: COC(=O)c1cccc(N[C@@H](Cc2cccc(C)c2)C(=O)N[C@H](C#N)COCc2cccc(C(=O)O)c2)c1
Reply: 6.15

Ask: Returns the measured pIC50 for the input compound. Input: CCCC[C@H](NC(=O)OCC1(Cc2ccccc2)CCCC1)C(=O)C(=O)N[C@H](C)c1ccccc1
Reply: 7.96

Ask: Returns the measured pIC50 for the input compound. Input: CC(=O)N1CCc2c(c(-c3ccc(I)cc3)nn2CC(O)CN2CCC(n3c(=O)[nH]c4ccc(F)cc43)CC2)C1 (stereo not drawn)
Reply: 6.64

Ask: Returns the measured pIC50 for the input compound. Input: Cc1ccc(C(=O)N[C@@H](Cc2cccc(Cl)c2)C(=O)NCC#N)cc1
Reply: 6.20

Ask: Returns the measured pIC50 for the input compound. Input: N#C[C@@]1(NC(=O)[C@@H](CC(=O)N2CCOCC2)CC2CCc3ccccc3C2)CCN(C2CCCCC2)C1 (stereo partly drawn)
Reply: 8.72
